// values below are reported fold change of affinity
Biological target: T1, Human CD3eg linker (human)
T1 construct: Single chain: epsilon and gamma subunits of human CD3 joined by a 29-mer linker, Flag-tag at the C-terminus; also called recombinant human CD3
T1 chain: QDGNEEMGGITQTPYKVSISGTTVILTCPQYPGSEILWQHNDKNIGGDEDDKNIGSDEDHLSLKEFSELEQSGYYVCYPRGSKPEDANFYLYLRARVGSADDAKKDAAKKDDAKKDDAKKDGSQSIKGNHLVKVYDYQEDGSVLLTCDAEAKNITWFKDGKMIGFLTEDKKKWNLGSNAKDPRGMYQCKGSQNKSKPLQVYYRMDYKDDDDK
Test: Biacore SPR, vs template H183/L072
Give the value, in units of fold, as a plain number.

Please review the entries below; each comes with its answer.
query: Give reported fold change of affinity value for H183/L072 VH M34I (antibody, name in Kabat numbering, V domains shown) VH: QVQLVESGGGLVQPGRSLRLSCAASGFTFSNAWIHWVRQAPGKGLEWVAQIKDKGNAYAAYYAPSVKGRFTISRDDSKNSIYLQMNSLKTEDTAVYYCHYVHYASASTVLPAFGVDAWGQGTTVTVSS VL: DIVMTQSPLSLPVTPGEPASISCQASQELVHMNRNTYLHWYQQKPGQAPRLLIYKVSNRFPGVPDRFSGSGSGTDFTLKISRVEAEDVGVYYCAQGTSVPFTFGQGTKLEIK
result: 0.6

query: Give reported fold change of affinity value for H183/L072 VH A57H (antibody, name in Kabat numbering, V domains shown) VH: QVQLVESGGGLVQPGRSLRLSCAASGFTFSNAWMHWVRQAPGKGLEWVAQIKDKGNAYAHYYAPSVKGRFTISRDDSKNSIYLQMNSLKTEDTAVYYCHYVHYASASTVLPAFGVDAWGQGTTVTVSS VL: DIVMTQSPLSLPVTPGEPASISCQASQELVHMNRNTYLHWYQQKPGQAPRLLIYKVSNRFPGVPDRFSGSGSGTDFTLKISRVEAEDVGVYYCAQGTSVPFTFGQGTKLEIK
result: 0.9

query: Give reported fold change of affinity value for H183/L072 VH A60W (antibody, name in Kabat numbering, V domains shown) VH: QVQLVESGGGLVQPGRSLRLSCAASGFTFSNAWMHWVRQAPGKGLEWVAQIKDKGNAYAAYYWPSVKGRFTISRDDSKNSIYLQMNSLKTEDTAVYYCHYVHYASASTVLPAFGVDAWGQGTTVTVSS VL: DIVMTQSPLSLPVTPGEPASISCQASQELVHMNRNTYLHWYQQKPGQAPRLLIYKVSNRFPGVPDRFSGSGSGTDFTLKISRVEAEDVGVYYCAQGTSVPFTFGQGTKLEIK
result: 1

query: Give reported fold change of affinity value for H183/L072 VH T28S (antibody, name in Kabat numbering, V domains shown) VH: QVQLVESGGGLVQPGRSLRLSCAASGFSFSNAWMHWVRQAPGKGLEWVAQIKDKGNAYAAYYAPSVKGRFTISRDDSKNSIYLQMNSLKTEDTAVYYCHYVHYASASTVLPAFGVDAWGQGTTVTVSS VL: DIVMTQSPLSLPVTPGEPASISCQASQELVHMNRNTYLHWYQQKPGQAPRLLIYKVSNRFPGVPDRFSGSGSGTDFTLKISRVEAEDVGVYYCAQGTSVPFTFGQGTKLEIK
result: 1.2

***
query: Give reported fold change of affinity value for H183/L072 VH K52bQ (antibody, name in Kabat numbering, V domains shown) VH: QVQLVESGGGLVQPGRSLRLSCAASGFTFSNAWMHWVRQAPGKGLEWVAQIKDQGNAYAAYYAPSVKGRFTISRDDSKNSIYLQMNSLKTEDTAVYYCHYVHYASASTVLPAFGVDAWGQGTTVTVSS VL: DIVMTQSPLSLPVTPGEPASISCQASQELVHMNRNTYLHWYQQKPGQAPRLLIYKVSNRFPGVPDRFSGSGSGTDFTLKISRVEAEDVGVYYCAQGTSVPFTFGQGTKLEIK
result: 0.7

These measurements were taken from patent US20210388087A1.
